tested on: NCI-H226 lung; assay: NCI-60 one-dose screen, 48 h (100 = growth as untreated, 0 = no growth, -100 = all killed); details: 10 µM unless noted
The panel holds about 83,000 compounds, 20% with a hit somewhere; the sample as a whole holds those more often.
value_type: growth (%)

>>> quantitative_readout("COc1ccc(SC2c3ccc(O)cc3Oc3nc(N)c(C#N)c(N)c32)cc1 (stereo unspecified)")
117
>>> quantitative_readout("CC1CCC(C(C)C)C(NN)C1 (stereo unspecified)")
88
>>> quantitative_readout("CCc1c(C)c2cc3c(c(C)c2oc1=O)OCC(=O)N3")
52.4
>>> quantitative_readout("O=C(Nc1cccc(-n2ccc3c(NC(=O)c4ccccc4)nccc32)c1)c1cccc(C(F)(F)F)c1")
35.6
>>> quantitative_readout("COc1ccc2c(c1)C(=O)/C(=C/c1ccc(OCC(=O)c3ccc(Cl)cc3)cc1)O2")
80.7
>>> quantitative_readout("Nc1n[nH]c2cccc(C#Cc3cccc(NC(=O)c4cccc(C(F)(F)F)c4)c3)c12")
44

====

tested on: SNB-75 CNS; assay: NCI-60 one-dose screen, 48 h (100 = growth as untreated, 0 = no growth, -100 = all killed); conditions: 10 µM unless noted
The panel holds about 83,000 compounds, 20% with a hit somewhere; the sample as a whole holds those more often.
Note to self: values exactly at 80% are T. So growth at or above 80% is T, below is F.

>>> class_name("Cc1[nH]c2ccc(F)cc2c1CCNC(=O)C1CCN(C(=O)c2ccc(-c3ccccc3)cc2)CC1")
"F"
>>> class_name("Cc1cn([C@]2(CF)O[C@H](CO)C2C)c(=O)[nH]c1=O (stereo not given in full)")
"T"
>>> class_name("Cc1[nH]n(C(=O)c2ccncc2)c(=O)c1N=Nc1ccc(S(=O)(=O)Nc2ccncn2)cc1")
"T"
>>> class_name("CCCCCCCCCCCCCCCCNc1ccccc1")
"T"
>>> class_name("Nc1nc(Nc2ccc(OCc3cccc(F)c3)cc2)c2c(n1)[nH]c1ccc(O)cc12")
"F"
>>> class_name("Cc1ccc2oc(=O)cc(C3C(C#N)=C(N)Oc4c3ccc3ccccc43)c2c1 (stereo not given)")
"F"
>>> class_name("Cc1cc(SCc2ccc(Cl)cc2Cl)nc(SCc2ccc(Cl)cc2Cl)n1")
"T"
>>> class_name("OCc1cn(-c2ccc(Cl)cc2)nc1-c1ccc(O)cc1")
"T"

====

system: BT-549 breast; assay: NCI-60 one-dose screen, 48 h; conditions: 10 µM unless noted
About 83,000 compounds went through this panel and 20% of them were active in at least one assay; those are over-represented in the sample as a whole. Activity calls are given as the source filed them. How the source made its calls: active means growth percent below 10; inactive means the rest.
Classes used: active, inactive

>>> class_name("COc1ccc2c(c1)C(=O)/C(=C/c1cccc(OCC(=O)c3ccccc3)c1)O2")
"active"
>>> class_name("Nc1ccc(S(=O)(=O)Nc2cc(I)cc(I)c2)cc1")
"inactive"
>>> class_name("COc1ccc(/C=C/C(=O)c2ccc(Oc3ncnc4ccccc34)cc2)cc1OC")
"inactive"
>>> class_name("CCC1S/C(=N\\N=C(/C)c2cccs2)N(c2ccccc2)C1=O (stereo not given)")
"inactive"
>>> class_name("C=C1C(=O)O[C@H]2[C@H]1CC/C(COC(=O)c1ccc(Cl)nc1)=C\\CC[C@@]1(C)O[C@@H]21")
"inactive"

====

Examples of compounds with documented growth follow.
system: HCC-2998 colon; test: NCI-60 one-dose screen, 48 h (100 = growth as untreated, 0 = no growth, -100 = all killed); details: 10 µM unless noted
The panel holds about 83,000 compounds, 20% with a hit somewhere; the sample as a whole holds those more often.
value_type: growth (%)

>>> quantitative_readout("CCNc1ncnc2n[nH]nc12")
106
>>> quantitative_readout("O=C1COc2ccccc2C(=O)N1CCCCNc1ccccc1")
94.5
>>> quantitative_readout("COc1cc2c(cc1OCCCCC(=O)Nc1ccc(-c3nc4ccccc4s3)cc1)N=C[C@@H]1CCCN1C2=O")
-62
>>> quantitative_readout("CN1CCN(CC(=O)N(C)c2ccc(N=C(c3ccccc3)c3c(O)[nH]c4ccc(C#N)cc34)cc2)CC1")
39.8
>>> quantitative_readout("O=C(Nc1ccc(-n2ccc3c(NC(=O)c4ccccc4)nccc32)cc1)c1cccc(C(F)(F)F)c1")
44.2
>>> quantitative_readout("Nc1nccc2c1ccn2-c1ccc(NC(=O)Nc2cccc(C(F)(F)F)c2)cc1")
115
>>> quantitative_readout("c1nc(SC2=NCCN2)c2[nH]cnc2n1")
32.8
>>> quantitative_readout("O=C(Nc1ccccc1Cl)c1c[nH]c(=O)c(-c2ccc(N3CCCOC4(CC4)C3)cc2)c1")
67.5
>>> quantitative_readout("Nc1n[nH]c2cccc(C#Cc3cccc(NC(=O)c4cccc(C(F)(F)F)c4)c3)c12")
26.2
>>> quantitative_readout("CC(C)Cn1cnc2c3ccccc3nc(NCn3nc(-c4cc(Cl)cc(Cl)c4Cl)oc3=S)c21")
97.4

====

test system: LOX IMVI melanoma; assay: NCI-60 one-dose screen, 48 h; settings: 10 µM unless noted
The panel holds about 83,000 compounds, 20% with a hit somewhere; the sample as a whole holds those more often. Activity calls are given as the source filed them. How the source made its calls: active means growth percent below 10; inactive means the rest.
Outcomes: active, inactive

>>> class_name("COc1ccccc1C(OC(C)=O)OC(C)=O")
"inactive"
>>> class_name("CCCCNc1cc(C(=O)O)cc(S(N)(=O)=O)c1Oc1ccccc1")
"inactive"
>>> class_name("CN(C)C(=O)Nc1nc2cc(Cl)c(Cl)cc2[nH]1")
"inactive"
>>> class_name("O=C(Nc1ccc(F)cc1)Nc1ccc(Cl)c([N+](=O)[O-])c1")
"active"
>>> class_name("NC(=S)NNC1CCCCC1")
"inactive"
>>> class_name("CN(CCNCc1ccccn1)CCNCc1ccccn1")
"active"
>>> class_name("Cc1nssc1=S")
"inactive"
>>> class_name("Fc1ccc(Nc2ncnc3ccc(-c4cn[nH]c4)cc23)cc1Cl")
"inactive"
>>> class_name("Nc1nccc2c1ccn2-c1ccc(NC(=O)Nc2cccc(C(F)(F)F)c2)cc1")
"inactive"
>>> class_name("CCOC(=O)C1CN(Cc2ccccc2)C(=O)C1=O (stereo not drawn)")
"inactive"
>>> class_name("COc1cc(-c2nc(SCC(=O)Nc3ccc(C(C)=O)cc3)[nH]c(=O)c2C#N)cc(OC)c1OC")
"inactive"
>>> class_name("CCn1c(SC)nnc1-c1cc2c([nH]c3ccccc32)c(-c2cccc(O)c2)n1")
"inactive"
>>> class_name("Cc1cccc(CC(=O)c2ccccc2)n1")
"inactive"
>>> class_name("O=C(c1cc(-c2ccc(Cl)cc2)nc2ccccc12)N1N=C(c2ccccc2)CC1c1cc(-c2ccccc2)nn1-c1ccccc1 (stereo not drawn)")
"inactive"
>>> class_name("O=C(O)c1ccc2nc(-c3ccc(OCCCCCOc4ccc(-c5nc6ccc(C(=O)O)cc6[nH]5)cc4)cc3)[nH]c2c1")
"inactive"
>>> class_name("COc1ccc(SC2c3ccc(O)cc3Oc3nc(N)c(C#N)c(N)c32)cc1 (stereo not drawn)")
"inactive"
>>> class_name("CC(=O)Cc1cccnc1")
"inactive"
>>> class_name("O=C(Nc1ccc(F)cc1)Nc1ccc(Br)c(C(F)(F)F)c1")
"active"
>>> class_name("CC(/C=C/C=C(\\C)[C@H](O)[C@H](C)C(=O)O[C@H]1C[C@H](C)C=C2C=C[C@@]3(C)O[C@@H](O)CC(=O)[C@]3(C)[C@H]21)=C\\C=C\\C(=O)O")
"active"
>>> class_name("O=C(Nc1cccc(-n2ccc3c(NC(=O)c4ccccc4)ncnc32)c1)Nc1ccc(Cl)c(C(F)(F)F)c1")
"inactive"
>>> class_name("O=C1OC(N(Cc2ccc(Cl)cc2)c2ccccc2)c2ccccc21 (stereo not drawn)")
"inactive"
>>> class_name("COc1ccc(-c2cc(-c3nnc(SC/C(=N\\O)c4ccccc4)n3-c3ccccc3)c3ccccc3n2)cc1")
"inactive"
>>> class_name("CC(=O)n1cc(/C=C2\\N=C(c3ccc(Cl)cc3)N(c3ccc(S(=O)(=O)Nc4nccs4)cc3)C2=O)c2ccccc21")
"inactive"
>>> class_name("COc1cc(NC(=O)c2cc(OC)c3ccn(C)c3c2)cc2c1C[C@]1(C)CC[C@@H](O)C(C)(C)[C@H]1O2")
"inactive"
>>> class_name("COc1cc(NS(=O)(=O)c2ccc(N)cc2)ncn1")
"inactive"
>>> class_name("O=C1c2ccccc2OC=C(c2ccccc2)N1CCCCN1CCCCC1")
"inactive"
>>> class_name("COc1cc(NC(=O)C#Cc2ccccc2)c(OC)cc1Cl")
"inactive"
>>> class_name("O=C(COc1ccc(Cl)cc1)N1CCN(Cc2ccc3c(c2)OCO3)CC1")
"inactive"
>>> class_name("CCCC(=O)Oc1ccc(/C(=C(\\C)c2ccc(OC)cc2)c2ccc(OCCN3CCCCC3)cc2)cc1")
"inactive"
>>> class_name("CSc1nc(N)nc2c1ncn2C")
"inactive"
>>> class_name("CC1(C)N=C(N)N=C(N)N1c1ccc(OCC(=O)Nc2ccccc2)c(Cl)c1")
"inactive"
>>> class_name("COc1cc(Cn2cc3c(c2)-c2onc(CO)c2CC3)cc(OC)c1OC")
"inactive"
>>> class_name("CC1(C)CC(=O)C2=C(C1)OC1=C(C(=O)CC(C)(C)C1)C2c1ccc(OCc2cn(-c3ccc(F)cc3F)nn2)cc1")
"inactive"
>>> class_name("COC(=O)c1ccc2c(c1)Oc1ccc(Cl)cc1-c1cc(C)nn1-2")
"inactive"
>>> class_name("O=C1CCC(=O)N1C1CCCCC1")
"inactive"
>>> class_name("Oc1ccc(O)c(-[n+]2ccccc2)c1")
"inactive"
>>> class_name("Fc1cccc(F)c1C#Cc1ccc2cccnc2c1")
"inactive"
>>> class_name("Nc1ccc(S(=O)(=O)Nc2ccnn2-c2ccccc2)cc1")
"inactive"
>>> class_name("CCC1S/C(=N\\N=C(/C)c2ccco2)N(c2ccccc2)C1=O (stereo not drawn)")
"inactive"
>>> class_name("Cc1c(Cl)ccc2c(C(=O)Cl)cc(-c3ccccc3)nc12")
"inactive"
>>> class_name("CCNc1ncnc2n[nH]nc12")
"inactive"
>>> class_name("O=C(Nc1ccc(-n2ccc3c(NC(=O)c4ccccc4)ncnc32)cc1)c1cccc(C(F)(F)F)c1")
"active"
>>> class_name("CCN(CC)CCN1C(=O)c2c(c3c4ccccc4[nH]c3c3[nH]c4ccccc4c23)C1=O")
"inactive"
